Known soluble fraction (log2) of a selection of sequences
Assay: soluble fraction after stress (log2 fold change); higher = more stays soluble; pooled small domains, quantitative proteomics
Conditions: stress: 50 degC
Answer with a number only.

Past entries and their recorded results:
{"sequence_entry": "HMPGEIKKIPINSISYQDLKQHPYFDAYLAKQVIKYRETKGRIENIEQFREATRAYQSLIEKVTPYLDFE", "result_value": 0.14}
{"sequence_entry": "HMFPATAPQLKAVHAILGKQGISDELDKLARVNEWLVGLNKEPVAAISELDKHTTSGLIDHLQGELNE", "result_value": 0.282}
{"sequence_entry": "HMGRQVTVPNVTGMLVEEARAAISEAELWVDSPRAVQGEVTRQEPARGERLSPGQEVRIYTES", "result_value": 0.31}
{"sequence_entry": "HMAGPVLTPEEAEVLRILADHGEMTVDNISAEGKMSAAVVLRGLGVLSAYGLVAPGGPGRWRSE", "result_value": -0.253}
{"sequence_entry": "HMNKETYIDALERKLWDRLDPDQLRDIISYYKDYFAMEAAKGISEEETIRKLGDPALLAKSILAAE", "result_value": -0.335}
{"sequence_entry": "HMNKKLEMKIEQLDLSVRLFNSLKRSGIYTVAQIIKLTEEDVMRFRSLGRKSFKELKEKLSEHGLEFE", "result_value": -2.15}
{"sequence_entry": "HMVGEYTVKKGDTLWKIAGQTLGSPLRYAEIYELNKDVIEEAALGRGKKNSSNGHWIFQGTVLKIPA", "result_value": -0.00974}
{"sequence_entry": "HMTMLLEYNVSRSSKWMNKTIMDAEIPDDILIVMIKRNGQVIVPKGSTEILENDILVLSGNNLNEVALG", "result_value": -2.33}

Ask: Entry `HMESRRVTLLLPYDKAGIADTLRREAAVLSLEYGEDGVTVEAVVKPELWGLVREYVQNDNPK` : reported soluble fraction (log2) = ?
Result: 0.166

Ask: Entry `HMDPPISNDARNAINAKLMKFSELHPNEMKKLVEAYKKEFKVSKISPITLARQGEFLSHAISKIDDT` : reported soluble fraction (log2) = ?
Result: 0.0248

Ask: Entry `HMEWGEADFVRLDEALATLRTLSPRQAEVVDLRFFSELSLEETAATLGLSLATVKRDWSVARLYLQRALS` : reported soluble fraction (log2) = ?
Result: 0.0743

---

Assay: soluble fraction after stress (log2 fold change); higher = more stays soluble; pooled small domains, quantitative proteomics
Conditions: stress: 50 degC
observation_type: soluble fraction (log2)
Answer with a number only.

Past entries and their recorded results:
{"sequence_entry": "HMTDTDVLSSRLSALSSGRTSAVRLRDGVLSLVLDVGGLSIEARKAMTTAIESTARATPGVEAVRIAET", "result_value": -0.0141}
{"sequence_entry": "HMLTGDVDRYKDFFIALEKTSPVPIGFEKIIGGAHGYYHLEDKRIAIDEGMSELQTLKTAIHEIAHAKLHD", "result_value": -0.14}
{"sequence_entry": "HMTYNEYPEKEMQDLIDKSISQQEQAASQYGYSLGDYVTARYGFQSESDFREYVQGLAEDYMKEKI", "result_value": -0.198}
{"sequence_entry": "HMELLPFEFARANRVLLRVNESDLVVSPDANHSAVTEILRLNNNIETIKSVDAEAFDKILSSIYSG", "result_value": -0.765}
{"sequence_entry": "HMGPEISEDAKVVFDRLKNHDEILLNNFKSEFDLSNKKWDKIIKELRGNDLISIIKSEDGNLFIKP", "result_value": -0.00901}

Ask: Entry `HMKHFNDEELDGFAGLKSDDYNEEQVELFRNIFEELHPDEIIEWTESLRRRGIEIPSSLKDEVVMMIN` : reported soluble fraction (log2) = ?
Result: 0.173

Ask: Entry `HMGPRPLPAEFTHPSLRALLALGTTRGGVTSADVKTALEAASVPAGRRAAVLRALDDNGIEVHTEP` : reported soluble fraction (log2) = ?
Result: 0.0376

Ask: Entry `HMQNPYDTLGVSRDSTDAEIKKAYRKLAMEHHPDKGGDSQRFAEINNAYDNIKDMSSRQNFENDPSNFQ` : reported soluble fraction (log2) = ?
Result: 0.288

Ask: Entry `HMADYSMDDNAWNAKKADIDEWFEANPDFSANKAITDGLFSIGDSQVEMRKRYWASIAGVFAGLPNSPIG` : reported soluble fraction (log2) = ?
Result: -0.152

Ask: Entry `HMSDGTVYGSDGVIKVNLPQSGMLRIYATDGTTLVNRWQAAGIDTISMPRGLYIVRFDNQVWKVVV` : reported soluble fraction (log2) = ?
Result: -0.74

Ask: Entry `HMKKKSYIVSFATDEDAQRFAREGFEVISLSGRQITVSLKGEMMPLVKALGSYQVVGLETVA` : reported soluble fraction (log2) = ?
Result: -0.19

---

Experiment: soluble fraction after stress (log2 fold change); higher = more stays soluble; pooled small domains, quantitative proteomics
Details: stress: 50 degC
observation_type: soluble fraction (log2)
Answer with a number only.

Past entries and their recorded results:
{"sequence_entry": "HMEKYTDDLEIAAEIARLETLMEGNGRVLIRPSGTEPLVRVMIEGNDIEQITKLAEDLAALLNKRF", "result_value": -0.747}
{"sequence_entry": "HMNNLVTRREVEILGWIKEGKTTSDIAGILSLSPFTVKNHVQNILKKLGARSRSHAVAQAINLGLLH", "result_value": -0.773}
{"sequence_entry": "HMDKAGWLPARVRLADYPALKQLAWQVQGVDELTPREALGIYERNWRHLDEAALLPRERNLIDALRLAFG", "result_value": -0.207}

Ask: Entry `HMPNYIDAISALLTLKGVGDRKHASTMANILNLQYNSAKQKLDGKRGITLDEVKKVFQYFNEPF` : reported soluble fraction (log2) = ?
Result: -1.1

Ask: Entry `HMEANAYFDAYPDVAAEWARLSGSDEGKATLSAIGVTTPQQFAQYHYTTFGSKENRNAPVGYTP` : reported soluble fraction (log2) = ?
Result: 0.0756

Ask: Entry `HMEALGLSPRQVDVLRLLVEGRSNKMIMRELELSESTVKTHLQAIFRRLGVSSRTQAVVAAARLGL` : reported soluble fraction (log2) = ?
Result: -1.25

Ask: Entry `HMFTYEETIGKSADVYLTIPALKAGKGKIIISVRGSVHELDAMTNNAEKISTGAVVKIVRIEHGNILLVEN` : reported soluble fraction (log2) = ?
Result: -1.63

Ask: Entry `HMGTVQSVDRALLLLSEIGREPGGLVDLSTRVRLATSTTGRILATLEHAGAVVRGDDGIYHIGPLVHGMVS` : reported soluble fraction (log2) = ?
Result: -0.839

---

Known soluble fraction (log2) of a selection of sequences
Experiment: soluble fraction after stress (log2 fold change); higher = more stays soluble; pooled small domains, quantitative proteomics
Settings: stress: 50 degC
Answer with a number only.

Past entries and their recorded results:
{"sequence_entry": "HMSETAEFIIQVNGKVRAKLQLPTDISKEEIQKLALADENVQKYLNGEPRKIIFPPNTRLVSIV", "soluble fraction (log2)": -0.0471}
{"sequence_entry": "HMDYQYILVDVKDRIATVTINRPEYSNAFARESYYEIADAMNTLGARDDVGVIVITGAGKHFSAGGDIKRF", "soluble fraction (log2)": -0.534}

Ask: Entry `HMEKINLIIEEDNNLRLDKVIAMQLQELSRTQIQDMINQGLVLVNQKKEKASYKTKLNDEIEITILD` : reported soluble fraction (log2) = ?
Result: -1.37

Ask: Entry `HMKRAVGLDEYRDSIVLKKPEGYTEESYAAYKNAYDALMALDSKETTAEMFANAKSAFEAAQAGLVQKP` : reported soluble fraction (log2) = ?
Result: 0.101

---

Known soluble fraction (log2) of a selection of sequences
Experiment: soluble fraction after stress (log2 fold change); higher = more stays soluble; pooled small domains, quantitative proteomics
Settings: stress: 50 degC
Answer with a number only.

Past entries and their recorded results:
{"sequence_entry": "HMRSLVDRSVQAVTDHIRENALRVGDSLPGEAYFATSLGVSRAVMREAFGALAALRVIDVGNGRKPRVGAI", "observation_type": "soluble fraction (log2)", "result_value": -0.58}
{"sequence_entry": "HMASIATLTVKALGGASDVVIRDKDGRIIWADRLPAGQSHRVFGHAPFNVAASHASRVQLSLLGKDVGRV", "observation_type": "soluble fraction (log2)", "result_value": -0.719}
{"sequence_entry": "HMASDLPTVTIMGKTFYTYVAKKGESFFGIANRFGWDPELLVKTNRELETPLDKGALIYYPVPKKPK", "observation_type": "soluble fraction (log2)", "result_value": -0.199}

Ask: Entry `HMLDVNLIFSRPGFSLSAAFTLHAGGITVLRGDSGSGKTTLADLLSGAIAPQKGRILSDGDIWFDAASGIN` : reported soluble fraction (log2) = ?
Result: 0.22

Ask: Entry `HMSNENIDQDELQAIIQKVLASNQDAVAKYKAGKTAVIGFLIGQVMRQLNKKIDVALAKKTLLVFLEK` : reported soluble fraction (log2) = ?
Result: -0.396

Ask: Entry `HMGQISDESVLKEMVVQLIADNPKEVASYLGGKETLLQWFMGQVARATKGKADPQAVKQLLLDEFEKLK` : reported soluble fraction (log2) = ?
Result: 0.092

Ask: Entry `HMDNEIIEEEKITTLMITHNMRDAIKYGNRLIMLNEGRVIFDISGEEKKNLTVQELLEKFEK` : reported soluble fraction (log2) = ?
Result: -0.118

Ask: Entry `HMSTKLLEVNIFDDSKWVNKTIMDSDIPEDILIVMIKRGDEVIVPKGSTIINKGDILVLSANNFDNLLN` : reported soluble fraction (log2) = ?
Result: -1.63

Ask: Entry `HMKLIRLGKAAGELNVGMSTLAEFLQSKGHSVDPNPNTKLTPEQYALLRMEFAADQTLKKLTKQP` : reported soluble fraction (log2) = ?
Result: 0.198

Ask: Entry `HMQGVNLTETEKNFIAQVLSPLLKQGQSLYQIRTNHPEIKLSVKTLYTYIESGIFKESGINNFSLRRQ` : reported soluble fraction (log2) = ?
Result: 0.0431

Ask: Entry `HMELLPAERRQQLVDWFKSNQAGTSQDLARMFGISVSTIRRDLDLLASEGLVKRTHGGAVSIR` : reported soluble fraction (log2) = ?
Result: 0.0027

Ask: Entry `HMSEIVEEQNTKLKQAVSKLSKRQQEVLYLKFEEGLDYEQISKIMDLKYQSVRNLVSTAIIKIKEH` : reported soluble fraction (log2) = ?
Result: -2.16
